Consider molecules characterized by their IC50 with Amine oxidase [flavin-containing] B (Rattus norvegicus, UniProt P19643).
Sequence (P19643 whole entry): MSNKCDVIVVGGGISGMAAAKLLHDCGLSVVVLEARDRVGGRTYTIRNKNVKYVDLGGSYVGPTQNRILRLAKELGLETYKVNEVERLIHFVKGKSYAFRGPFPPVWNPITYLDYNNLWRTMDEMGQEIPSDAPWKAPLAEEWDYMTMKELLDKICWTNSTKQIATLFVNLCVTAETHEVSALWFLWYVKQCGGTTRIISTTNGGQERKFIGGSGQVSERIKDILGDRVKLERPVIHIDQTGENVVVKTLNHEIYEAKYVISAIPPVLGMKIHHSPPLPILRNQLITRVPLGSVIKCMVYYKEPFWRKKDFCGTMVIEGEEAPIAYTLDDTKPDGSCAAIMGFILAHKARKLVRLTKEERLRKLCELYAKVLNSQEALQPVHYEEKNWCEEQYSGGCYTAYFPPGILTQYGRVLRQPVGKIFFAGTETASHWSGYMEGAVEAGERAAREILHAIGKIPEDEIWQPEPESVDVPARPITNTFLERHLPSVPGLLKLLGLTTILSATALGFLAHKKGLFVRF
readout.name: IC50 (µM)

Examples from the recorded data:
• O=C1c2ccccc2-c2nc(-c3cccc([N+](=O)[O-])c3)nnc21 = 0.08
• O=C1c2ccccc2-c2nnc(COc3ccc(F)cc3)cc21 = 1.9

I. Cc1ncc2c(n1)C(=O)c1ccccc1-2
II. O=C1c2ccccc2-c2ncnc(-c3ccccc3)c21
Q) For I and II , which recorded IC50 is lower? In your reply, give the label of the chosen option.
A) I

====

# tested.on: UniProtKB P21396
# Sequence (P21396 whole entry): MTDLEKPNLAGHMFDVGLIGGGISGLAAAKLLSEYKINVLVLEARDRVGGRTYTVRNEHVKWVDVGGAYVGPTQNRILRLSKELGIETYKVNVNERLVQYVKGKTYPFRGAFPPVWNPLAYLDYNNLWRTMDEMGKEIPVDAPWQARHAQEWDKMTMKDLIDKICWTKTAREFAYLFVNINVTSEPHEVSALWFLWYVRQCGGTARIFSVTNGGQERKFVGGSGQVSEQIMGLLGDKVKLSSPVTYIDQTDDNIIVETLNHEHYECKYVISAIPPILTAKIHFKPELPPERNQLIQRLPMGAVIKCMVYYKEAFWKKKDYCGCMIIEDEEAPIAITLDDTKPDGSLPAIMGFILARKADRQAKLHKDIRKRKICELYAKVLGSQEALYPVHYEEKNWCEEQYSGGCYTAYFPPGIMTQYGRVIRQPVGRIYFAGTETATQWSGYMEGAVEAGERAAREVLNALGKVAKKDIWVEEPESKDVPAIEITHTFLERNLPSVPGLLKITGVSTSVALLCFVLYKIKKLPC
readout.name: IC50 (µM)

* c1ccc2c(c1)CCc1c-2[nH]c2ccccc12 | 12

1. Cc1ncc2c(n1)C(=O)c1ccccc1-2
2. c1ccc(-c2ncc3c(n2)-c2ccccc2C3)cc1
Q) For 1 and 2 , which recorded IC50 is lower? In your reply, give the label of the chosen option.
A) 2
